tested on: Staphylococcus aureus; assay: Antimicrobial activity against TetK multidrug efflux pump possessing Staphylococcus aureus XU-212 by standard microdilution method; format: functional
Overview of recorded MIC for various compounds
The reply should contain only the number, in µg/mL.

Solved entries (count: 2):
MOL	MIC / µg/mL
CCCCC[C@H]1CCCCCCCCCC(=O)O[C@@H]2[C@@H](O[C@@H]3O[C@H](C)[C@@H](OC(=O)[C@@H](C)CC)[C@H](O)[C@H]3O)[C@H](C)O[C@@H](O[C@H]3[C@H](O[C@H]4[C@H](O1)O[C@H](C)[C@@H](O)[C@@H]4O)O[C@H](COC(=O)[C@@H](C)CC)[C@@H](O)[C@@H]3O)[C@@H]2OC(=O)[C@@H](C)[C@H](C)O	512
C/C=C(\C)C(=O)O[C@H]1[C@H](O)[C@@H](O)[C@H](O[C@@H]2[C@H]3OC(=O)CCCCCCCCC[C@H](CCCCC)O[C@@H]4O[C@H](C)[C@@H](O)[C@H](O)[C@H]4O[C@@H]4O[C@H](CO)[C@@H](O)[C@H](O)[C@H]4O[C@H](O[C@H]2C)[C@@H]3OC(=O)[C@@H](C)CC)O[C@@H]1C	128

# evaluate next
input: // returns reported MIC for input "CCCCC[C@H]1CCCCCCCCCC(=O)O[C@H]2[C@H](O)[C@@H](CO)O[C@@H](O[C@H]3[C@H](O1)O[C@H](C)[C@@H](O)[C@@H]3O)[C@@H]2O[C@@H]1O[C@@H](C)[C@H](OC(=O)[C@@H](C)CC)[C@@H](O[C@@H]2O[C@@H](C)[C@H](O)[C@@H](O)[C@H]2O)[C@H]1OC(=O)[C@@H](C)CC"
output: 8

###

Overview of recorded MIC for various compounds
test system: Staphylococcus aureus; test: Antimicrobial activity against Staphylococcus aureus ATCC 25923 by standard microdilution method; format: functional
The reply should contain only the number, in µg/mL.

COMPOUND	MIC (µg/mL)
C/C=C(\C)C(=O)O[C@H]1[C@H](O)[C@@H](O)[C@H](O[C@@H]2[C@H]3OC(=O)CCCCCCCCC[C@H](CCCCC)O[C@@H]4O[C@H](C)[C@@H](O)[C@H](O)[C@H]4O[C@@H]4O[C@H](COC(=O)[C@H](C)[C@@H](C)O)[C@@H](O)[C@H](O)[C@H]4O[C@H](O[C@H]2C)[C@@H]3OC(=O)[C@@H](C)CC)O[C@@H]1C [ORIZABIN XVI]	8

# evaluate next
input: // returns reported MIC for input C/C=C(\C)C(=O)O[C@H]1[C@H](O)[C@@H](O)[C@H](O[C@@H]2[C@H]3OC(=O)CCCCCCCCC[C@H](CCCCC)O[C@@H]4O[C@H](C)[C@@H](O)[C@H](O)[C@H]4O[C@@H]4O[C@H](COC(=O)[C@@H](C)CC)[C@@H](O)[C@H](O)[C@H]4O[C@H](O[C@H]2C)[C@@H]3OC(=O)[C@H](C)[C@@H](C)O)O[C@@H]1C [ORIZABIN XIV]
output: 16

###

test system: Staphylococcus aureus; test: Antimicrobial activity against Staphylococcus aureus ATCC 25923 by standard microdilution method; assay type: functional
MEASUREMENT_TYPE: MIC (µg/mL)
The reply should contain only the number, in µg/mL.

MOL	MIC, µg/mL
C/C=C(\C)C(=O)O[C@H]1[C@H](O)[C@@H](O)[C@H](O[C@@H]2[C@H]3OC(=O)CCCCCCCCC[C@H](CCCCC)O[C@@H]4O[C@H](C)[C@@H](O)[C@H](O)[C@H]4O[C@@H]4O[C@H](COC(=O)[C@@H](C)[C@H](C)O)[C@@H](O)[C@H](O)[C@H]4O[C@H](O[C@H]2C)[C@@H]3OC(=O)[C@@H](C)CC)O[C@@H]1C	8

# evaluate next
input: Reported MIC for Staphylococcus aureus, given "C/C=C(\C)C(=O)O[C@H]1[C@H](O)[C@@H](O)[C@H](O[C@@H]2[C@H]3OC(=O)CCCCCCCCC[C@H](CCCCC)O[C@@H]4O[C@H](C)[C@@H](O)[C@H](O)[C@H]4O[C@@H]4O[C@H](COC(=O)C(C)C)[C@@H](O)[C@H](O)[C@H]4O[C@H](O[C@H]2C)[C@@H]3OC(=O)[C@@H](C)[C@H](C)O)O[C@@H]1C" ?
output: 16

###

tested on: Staphylococcus aureus; assay: Antimicrobial activity against TetK multidrug efflux pump possessing Staphylococcus aureus XU-212 by standard microdilution method; format: functional
Overview of recorded MIC for various molecules
The reply should contain only the number, in µg/mL.

Solved entries (count: 2):
MOL	STUDY_SYSTEM	MIC (µg/mL)
C/C=C(\C)C(=O)O[C@H]1[C@H](O)[C@@H](O)[C@H](O[C@@H]2[C@H]3OC(=O)CCCCCCCCC[C@H](CCCCC)O[C@@H]4O[C@H](C)[C@@H](O)[C@H](O)[C@H]4O[C@@H]4O[C@H](COC(=O)[C@H](C)[C@@H](C)O)[C@@H](O)[C@H](O)[C@H]4O[C@H](O[C@H]2C)[C@@H]3OC(=O)[C@@H](C)CC)O[C@@H]1C	Staphylococcus aureus	128
CCCCC[C@H]1CCCCCCCCCC(=O)O[C@H]2[C@H](O)[C@@H](CO)O[C@@H](O[C@H]3[C@H](O1)O[C@H](C)[C@H](O)[C@@H]3O)[C@@H]2O[C@@H]1O[C@@H](C)[C@H](OC(=O)C(C)C)[C@@H](O[C@@H]2O[C@@H](C)[C@H](O)[C@@H](O)[C@H]2O)[C@H]1OC(=O)[C@@H](C)CC	Staphylococcus aureus	16

input: // returns reported MIC for input "CCCCC[C@H]1CCCCCCCCCC(=O)O[C@@H]2[C@@H](O[C@@H]3O[C@H](C)[C@@H](OC(=O)[C@@H](C)CC)[C@H](O)[C@H]3O)[C@H](C)O[C@@H](O[C@H]3[C@H](O[C@H]4[C@H](O1)O[C@H](C)[C@@H](O)[C@@H]4O)O[C@H](COC(=O)[C@@H](C)[C@H](C)O)[C@@H](O)[C@@H]3O)[C@@H]2OC(=O)[C@@H](C)CC"
output: 64

###

system: Staphylococcus aureus; assay: Antimicrobial activity against Staphylococcus aureus ATCC 25923 by standard microdilution method; assay type: functional
Overview of recorded log10 of MIC for various compounds
Log10 applied to MIC; unit prior to transform: µg/mL.

Solved entries (count: 5):
MOL	STUDY_SYSTEM	ASSAY_VALUE
C/C=C(\C)C(=O)O[C@H]1[C@H](O)[C@@H](O)[C@H](O[C@@H]2[C@H]3OC(=O)CCCCCCCCC[C@H](CCCCC)O[C@@H]4O[C@H](C)[C@@H](O)[C@H](O)[C@H]4O[C@@H]4O[C@H](CO)[C@@H](O)[C@H](O)[C@H]4O[C@H](O[C@H]2C)[C@@H]3OC(=O)[C@@H](C)CC)O[C@@H]1C	Staphylococcus aureus	1.51
CCn1cc(C(=O)O)c(=O)c2cc(F)c(N3CCNCC3)cc21	Staphylococcus aureus	0.30
CCCCC[C@H]1CCCCCCCCCC(=O)O[C@@H]2[C@@H](O[C@@H]3O[C@H](C)[C@@H](O)[C@H](O)[C@H]3O)[C@H](C)O[C@@H](O[C@H]3[C@H](O[C@H]4[C@H](O1)O[C@H](C)[C@@H](O)[C@@H]4O)O[C@H](CO)[C@@H](O)[C@@H]3O)[C@@H]2OC(=O)[C@@H](C)CC	Staphylococcus aureus	2.41
C/C=C(\C)C(=O)O[C@H]1[C@H](O)[C@@H](O)[C@H](O[C@@H]2[C@H]3OC(=O)CCCCCCCCC[C@H](CCCCC)O[C@@H]4O[C@H](C)[C@@H](O)[C@H](O)[C@H]4O[C@@H]4O[C@H](COC(=O)[C@@H](C)CC)[C@@H](O)[C@H](O)[C@H]4O[C@H](O[C@H]2C)[C@@H]3OC(=O)[C@@H](C)[C@H](C)O)O[C@@H]1C	Staphylococcus aureus	2.11
CN(C)[C@@H]1C(O)=C(C(N)=O)C(=O)[C@@]2(O)C(O)=C3C(=O)c4c(O)cccc4[C@@](C)(O)[C@H]3C[C@@H]12	Staphylococcus aureus	-1.10

input: // returns reported log10 of MIC for input "CCCCC[C@H]1CCCCCCCCCC(=O)O[C@@H]2[C@@H](O[C@@H]3O[C@H](C)[C@@H](OC(=O)[C@@H](C)CC)[C@H](O)[C@H]3O)[C@H](C)O[C@@H](O[C@H]3[C@H](O[C@H]4[C@H](O1)O[C@H](C)[C@@H](O)[C@@H]4O)O[C@H](COC(=O)[C@@H](C)[C@H](C)O)[C@@H](O)[C@@H]3O)[C@@H]2OC(=O)[C@@H](C)CC"
output: 0.90

input: // returns reported log10 of MIC for input "C/C=C(\C)C(=O)O[C@H]1[C@H](O)[C@@H](O)[C@H](O[C@@H]2[C@H]3OC(=O)CCCCCCCCC[C@H](CCCCC)O[C@@H]4O[C@H](C)[C@@H](O)[C@H](O)[C@H]4O[C@@H]4O[C@H](COC(=O)[C@@H](C)[C@H](C)O)[C@@H](O)[C@H](O)[C@H]4O[C@H](O[C@H]2C)[C@@H]3OC(=O)C(C)C)O[C@@H]1C"
output: 0.90

input: // returns reported log10 of MIC for input "CCCCC[C@H]1CCCCCCCCCC(=O)O[C@H]2[C@H](O)[C@@H](CO)O[C@@H](O[C@H]3[C@H](O1)O[C@H](C)[C@H](O)[C@@H]3O)[C@@H]2O[C@@H]1O[C@@H](C)[C@H](OC(=O)[C@@H](C)CC)[C@@H](O[C@@H]2O[C@@H](C)[C@H](O)[C@@H](O)[C@H]2O)[C@H]1OC(=O)[C@@H](C)CC"
output: 1.20

input: // returns reported log10 of MIC for input "CCCCC[C@H]1CCCCCCCCCC(=O)O[C@@H]2[C@@H](O[C@@H]3O[C@H](C)[C@@H](OC(=O)[C@@H](C)CC)[C@H](O)[C@H]3O)[C@H](C)O[C@@H](O[C@H]3[C@H](O[C@H]4[C@H](O1)O[C@H](C)[C@@H](O)[C@@H]4O)O[C@H](COC(=O)[C@H](C)[C@@H](C)O)[C@@H](O)[C@@H]3O)[C@@H]2OC(=O)[C@@H](C)CC"
output: 1.81

input: // returns reported log10 of MIC for input "CCCCC[C@H]1CCCCCCCCCC(=O)OC[C@H]2O[C@@H](O[C@H]3[C@H](O1)O[C@H](C)[C@H](O)[C@@H]3O)[C@H](O[C@@H]1O[C@@H](C)[C@H](OC(=O)[C@@H](C)CC)[C@@H](O[C@@H]3O[C@@H](C)[C@H](O)[C@@H](O)[C@H]3O)[C@H]1OC(=O)[C@@H](C)CC)[C@@H](O)[C@@H]2O"
output: 1.20

input: // returns reported log10 of MIC for input "CCCCC[C@H]1CCCCCCCCCC(=O)O[C@H]2[C@H](O)[C@@H](CO)O[C@@H](O[C@H]3[C@H](O1)O[C@H](C)[C@@H](O)[C@@H]3O)[C@@H]2O[C@@H]1O[C@@H](C)[C@H](OC(=O)[C@@H](C)CC)[C@@H](O[C@@H]2O[C@@H](C)[C@H](O)[C@@H](O)[C@H]2O)[C@H]1OC(=O)[C@@H](C)CC"
output: 1.20
